# Protocol description: 14-day rat neurotoxicology study: toxicokinetics
# Type: in vivo, Sprague-Dawley rats
# Condition label: male, Sprague-Dawley, rat, plasma, po, 50 mg/kg/day, 50 mg/kg/day oral, male, Day 2; read-out: AUC24
Endpoint: AUC (ng·h/mL)
Expressed in ng·h/mL, but write only the number.

q: Look up AUC: CC1=CN2CCS(=O)(=O)N=C2C(c2ccc(OC3CCCCC3)cc2)=N1
a: 9480

---

# Protocol description: Phase 1 single-rising dose (SRD, Part 1) plasma PK in healthy subjects
# Assay type: in vivo, human
# Condition label: both sexes, human, plasma; single oral 9 mg; mean, N = 6; read-out: Vz/F
# Procedure: The study was designed to assess the safety, tolerability, PK, and PD of COMPOUND A. A total of 88 subjects were enrolled in 6 SRD and 5 SRD/MRD cohorts (n=8 per cohort). The study was composed of 2 parts. […] Referring now to FIG. 2, mean plasma concentration-time profiles (linear and semilog scales) of COMPOUND A were determined following single oral administration of COMPOUND A.
Endpoint: Vd/F

q: Look up Vd/F: CC1=CN2CCS(=O)(=O)N=C2C(c2ccc(OC3CCCCC3)cc2)=N1
a: 120 L

---

# Protocol description: Phase 1 single-rising dose (SRD, Part 1) plasma PK in healthy subjects
# Format: in vivo, human
# Condition label: both sexes, human, plasma; single oral 1 mg; mean, N = 6; read-out: AUC∞
Endpoint: AUC(0-inf) (ng·h/mL)
Expressed in ng·h/mL, but write only the number.

q: Look up AUC(0-inf): CC1=CN2CCS(=O)(=O)N=C2C(c2ccc(OC3CCCCC3)cc2)=N1
a: 642

---

# Protocol description: Phase 1 SRD/multiple-rising dose (MRD, Part 2) plasma PK in healthy subjects
# Format: in vivo, human
# Condition label: both sexes, human, plasma, oral; 6 mg QD cohort, Study Day 1; mean
Endpoint: AUC(0-inf) (ng·h/mL)
Expressed in ng·h/mL, but write only the number.

q: Look up AUC(0-inf): CC1=CN2CCS(=O)(=O)N=C2C(c2ccc(OC3CCCCC3)cc2)=N1
a: 2330

---

# Protocol description: Phase 1 SRD/multiple-rising dose (MRD, Part 2) plasma PK in healthy subjects
# Type: in vivo, human
# Condition label: both sexes, human, plasma, oral, 1 mg, 1 mg QD, Study Day 18; mean; read-out: Cmax, ss
Endpoint: Cmax (ng/mL)
Expressed in ng/mL, but write only the number.

q: Look up Cmax: CC1=CN2CCS(=O)(=O)N=C2C(c2ccc(OC3CCCCC3)cc2)=N1
a: 24.9

---

# Protocol description: Phase 1 SRD/multiple-rising dose (MRD, Part 2) plasma PK in healthy subjects
# Type: in vivo, human
# Condition label: both sexes, human, plasma, oral; 0.3 mg QD cohort, Study Day 1; mean
Endpoint: AUC(0-inf) (ng·h/mL)
Expressed in ng·h/mL, but write only the number.

q: Look up AUC(0-inf): CC1=CN2CCS(=O)(=O)N=C2C(c2ccc(OC3CCCCC3)cc2)=N1
a: 133

---

# Protocol description: Phase 1 SRD/multiple-rising dose (MRD, Part 2) plasma PK in healthy subjects
# Type: in vivo, human
# Condition label: both sexes, human, plasma, oral; 6 mg QD cohort, Study Day 1; mean; read-out: Vz/F
Endpoint: Vd/F (L)
Expressed in L, but write only the number.

q: Look up Vd/F: CC1=CN2CCS(=O)(=O)N=C2C(c2ccc(OC3CCCCC3)cc2)=N1
a: 145

---

# Protocol description: Phase 1 single-rising dose (SRD, Part 1) plasma PK in healthy subjects
# Type: in vivo, human
# Condition label: both sexes, human, plasma; single oral 0.3 mg; mean, N = 6; read-out: Cmax
# Procedure: The study was designed to assess the safety, tolerability, PK, and PD of COMPOUND A. A total of 88 subjects were enrolled in 6 SRD and 5 SRD/MRD cohorts (n=8 per cohort). The study was composed of 2 parts. […] Referring now to FIG. 2, mean plasma concentration-time profiles (linear and semilog scales) of COMPOUND A were determined following single oral administration of COMPOUND A.
Endpoint: Cmax (ng/mL)
Expressed in ng/mL, but write only the number.

q: Look up Cmax: CC1=CN2CCS(=O)(=O)N=C2C(c2ccc(OC3CCCCC3)cc2)=N1
a: 3.63

---

# Protocol description: Phase 1 SRD/multiple-rising dose (MRD, Part 2) plasma PK in healthy subjects
# Assay type: in vivo, human
# Condition label: both sexes, human, plasma, oral, 9 mg, 9 mg QD, Study Day 6; mean; read-out: AUC24
Endpoint: AUC (ng·h/mL)
Expressed in ng·h/mL, but write only the number.

q: Look up AUC: CC1=CN2CCS(=O)(=O)N=C2C(c2ccc(OC3CCCCC3)cc2)=N1 [COMPOUND A]
a: 1570

---

# Protocol description: Phase 1 SRD/multiple-rising dose (MRD, Part 2) plasma PK in healthy subjects
# Type: in vivo, human
# Condition label: both sexes, human, plasma, oral, 1 mg, 1 mg QD cohort, Study Day 1; mean; read-out: AUC24
Endpoint: AUC

q: Look up AUC: CC1=CN2CCS(=O)(=O)N=C2C(c2ccc(OC3CCCCC3)cc2)=N1 [COMPOUND A]
a: 138 ng·h/mL

---

# Protocol description: Phase 1 SRD/multiple-rising dose (MRD, Part 2) plasma PK in healthy subjects
# Assay type: in vivo, human
# Condition label: both sexes, human, plasma, oral; 0.3 mg QD cohort, Study Day 1; mean; read-out: Vz/F
Endpoint: Vd/F (L)
Expressed in L, but write only the number.

q: Look up Vd/F: CC1=CN2CCS(=O)(=O)N=C2C(c2ccc(OC3CCCCC3)cc2)=N1
a: 121

---

# Protocol description: Phase 1 single-rising dose (SRD, Part 1) plasma PK in healthy subjects
# Format: in vivo, human
# Condition label: both sexes, human, plasma; single oral 5 mg; mean, N = 6; read-out: Vz/F
Endpoint: Vd/F (L)
Expressed in L, but write only the number.

q: Look up Vd/F: CC1=CN2CCS(=O)(=O)N=C2C(c2ccc(OC3CCCCC3)cc2)=N1 [COMPOUND A]
a: 115

---

# Protocol description: Phase 1 SRD/multiple-rising dose (MRD, Part 2) plasma PK in healthy subjects
# Format: in vivo, human
# Condition label: both sexes, human, plasma, oral, 1 mg, 1 mg QD, Study Day 18; median; read-out: tmax
Endpoint: Tmax

q: Look up Tmax: CC1=CN2CCS(=O)(=O)N=C2C(c2ccc(OC3CCCCC3)cc2)=N1
a: 4.5 h

---

# Protocol description: Phase 1 single-rising dose (SRD, Part 1) plasma PK in healthy subjects
# Assay type: in vivo, human
# Condition label: both sexes, human, plasma, oral; range across the 0.3 to 18 mg single dose range; read-out: mean AUC∞
Endpoint: AUC(0-inf)

q: Look up AUC(0-inf): CC1=CN2CCS(=O)(=O)N=C2C(c2ccc(OC3CCCCC3)cc2)=N1 [COMPOUND A]
a: 148 to 8880 ng·h/mL

---

# Protocol description: Phase 1 single-rising dose (SRD, Part 1) plasma PK in healthy subjects
# Assay type: in vivo, human
# Condition label: both sexes, human, plasma; single oral 18 mg; mean, N = 6; read-out: Vz/F
Endpoint: Vd/F (L)
Expressed in L, but write only the number.

q: Look up Vd/F: CC1=CN2CCS(=O)(=O)N=C2C(c2ccc(OC3CCCCC3)cc2)=N1
a: 133

---

# Protocol description: Phase 1 SRD/multiple-rising dose (MRD, Part 2) plasma PK in healthy subjects
# Assay type: in vivo, human
# Condition label: both sexes, human, plasma, oral, 3 mg, 3 mg QD, Study Day 6; mean; read-out: Cmax
Endpoint: Cmax (ng/mL)
Expressed in ng/mL, but write only the number.

q: Look up Cmax: CC1=CN2CCS(=O)(=O)N=C2C(c2ccc(OC3CCCCC3)cc2)=N1
a: 34.7

---

# Protocol description: Phase 1 SRD/multiple-rising dose (MRD, Part 2) plasma PK in healthy subjects
# Format: in vivo, human
# Condition label: both sexes, human, plasma, oral, 0.3 mg, 0.3 mg QD, Study Day 6; mean; read-out: AUC24
Endpoint: AUC (ng·h/mL)
Expressed in ng·h/mL, but write only the number.

q: Look up AUC: CC1=CN2CCS(=O)(=O)N=C2C(c2ccc(OC3CCCCC3)cc2)=N1
a: 51.8

---

# Protocol description: 14-day rat neurotoxicology study: toxicokinetics
# Format: in vivo, Sprague-Dawley rats
# Condition label: male, Sprague-Dawley, rat, plasma, po, 50 mg/kg/day, 50 mg/kg/day oral, male, Day 14
Endpoint: Cmax (ng/mL)
Expressed in ng/mL, but write only the number.

q: Look up Cmax: CC1=CN2CCS(=O)(=O)N=C2C(c2ccc(OC3CCCCC3)cc2)=N1
a: 728

---

# Protocol description: Phase 1 SRD/multiple-rising dose (MRD, Part 2) plasma PK in healthy subjects
# Assay type: in vivo, human
# Condition label: both sexes, human, plasma, oral, Day 18; range over the 0.3 to 9 mg QD dose range; read-out: mean plasma Cmax,ss
Endpoint: Cmax

q: Look up Cmax: CC1=CN2CCS(=O)(=O)N=C2C(c2ccc(OC3CCCCC3)cc2)=N1
a: 7.86 to 243 ng/mL

Provenance of the data: patent US20230338391A1
